Values were extracted from patent US6344179B1.

- Assay target: human SERT (Homo sapiens, UniProt P31645)
- Construct: expressed in transfected cells
- Sequence (P31645 whole entry): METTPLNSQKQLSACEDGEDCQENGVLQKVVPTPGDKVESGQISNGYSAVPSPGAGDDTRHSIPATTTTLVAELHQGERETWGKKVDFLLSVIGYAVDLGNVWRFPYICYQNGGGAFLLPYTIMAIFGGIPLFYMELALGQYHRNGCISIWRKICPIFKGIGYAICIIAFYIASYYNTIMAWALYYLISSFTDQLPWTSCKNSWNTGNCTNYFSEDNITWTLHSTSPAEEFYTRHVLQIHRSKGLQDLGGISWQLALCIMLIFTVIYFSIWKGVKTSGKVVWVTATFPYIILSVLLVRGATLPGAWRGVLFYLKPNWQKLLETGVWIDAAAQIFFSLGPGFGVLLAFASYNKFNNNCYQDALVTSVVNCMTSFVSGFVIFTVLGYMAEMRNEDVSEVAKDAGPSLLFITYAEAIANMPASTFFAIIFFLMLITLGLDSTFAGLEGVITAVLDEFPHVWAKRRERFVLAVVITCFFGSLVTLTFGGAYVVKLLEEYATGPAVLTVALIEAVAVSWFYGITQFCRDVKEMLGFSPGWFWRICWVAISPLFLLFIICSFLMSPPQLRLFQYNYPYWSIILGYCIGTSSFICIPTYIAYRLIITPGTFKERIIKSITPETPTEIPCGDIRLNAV
- Assay comment: Competitive binding in transfected cell lines, [3H]Citalopram
- Study conditions: [3H]Citalopram; cells transfected with human SERT; read-out: 5-HTT, Ki
Property name: Ki (nM)
Return type: number; implicit unit nM.

Qu. Provide Ki value for the following molecule: COC(=O)[C@H]1[C@@H](c2ccc(F)cc2)C[C@@H]2CC[C@H]1N2C/C=C/I [Altropane, reference compound]
Ans. 55.4

---

- Assay target: human SERT (Homo sapiens, UniProt P31645)
- Construct: expressed in transfected cells
- Assay comment: Competitive binding in transfected cell lines, [3H]Citalopram
Entries and their pKi
pKi is a log-scale quantity: -log10 of the concentration expressed in molar.

Below are worked cases with known answers.
# Compound, Quantitative readout
rows = [
    ("COC(=O)[C@H]1[C@@H](c2ccc(Br)cc2)C[C@@H]2CC[C@H]1N2C/C=C/CF", 9.07),
    ("COC(=O)[C@H]1[C@@H](c2ccc(I)cc2)C[C@@H]2CC[C@H]1N2C/C=C/CF", 9.68),
]

# ---- query compound ----
Qu. Answer with the recorded pKi for the compound listed here: COC(=O)[C@H]1[C@@H](c2ccc(Cl)cc2)C[C@@H]2CC[C@H]1N2C/C=C/I [MMG/142, IPT, reference compound]
Ans. 8.31
